Target protein (sequence): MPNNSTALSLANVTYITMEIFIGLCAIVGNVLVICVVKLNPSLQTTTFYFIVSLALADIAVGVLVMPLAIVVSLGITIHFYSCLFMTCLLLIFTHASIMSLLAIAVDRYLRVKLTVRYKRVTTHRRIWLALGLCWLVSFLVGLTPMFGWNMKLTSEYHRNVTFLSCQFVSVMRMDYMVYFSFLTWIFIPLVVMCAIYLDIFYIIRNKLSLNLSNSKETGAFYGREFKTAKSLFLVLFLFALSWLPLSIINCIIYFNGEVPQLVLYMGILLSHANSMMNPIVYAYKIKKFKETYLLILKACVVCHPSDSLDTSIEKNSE
Readout Type: Ki

// recorded Ki for COc1cc(-c2c(-c3cccc(C#N)c3)nn3ccc(C(=O)NCC(C)(C)O)nc23)cc(C)n1 [Example 12.6] : 690 nM

Ki in this record for c1ccc(CNc2ccn3nc(-c4ccco4)cc3n2)cc1 [Example 48] : 41 nM

Recorded Ki (compound CCN1CCC(NC(=O)Nc2ccn3nc(-c4cccc(C#N)c4)c(-c4cc(C)nc(Cl)c4)c3n2)CC1 [Example 30.2] ): > 1000 nM

Entry under test: Cc1cc(-c2c(-c3cccc(C#N)c3)nn3ccc(NC(=O)C(C)(C)O)nc23)cc(Cl)n1 [Example 94] . Its Ki was > 1000 nM

Sample Cc1cc(-c2c(-c3cccc(C#N)c3)nn3ccc(N[C@H]4C[C@H](O)C4)nc23)cc(Cl)n1 [Example 2.18] ; Ki observed: 2430 nM

Lab note: Cc1cc(-c2c(-c3cccc(C#N)c3)nn3ccc(C(=O)N[C@H]4C[C@H](O)C4)nc23)cc(Cl)n1 [Example 6.19] gave Ki of > 1000 nM

Entry under test: Cc1cc(-c2c(-c3cccc(C#N)c3)nn3ccc(C(=O)NC(C)C4(O)COC4)nc23)cc(C)n1 (centres unmarked) [Example 92.6] . Its Ki was > 1000 nM

So, Cc1cc(-c2c(-c3cccc(C#N)c3)nn3ccc(NC[C@@H](C)O)nc23)cc(Cl)n1 [Example 3] ? Its Ki was > 1000 nM

###

Tested on: human PBMCs
Experiment: CD3/CD28 stimulated IL-2 release NECA reversal assay in human PBMCs;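 further: dose-response as % inhibition where 100% equals no-NECA control wells with CD3/CD28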
Assay type: cell-based
Conditions: PBMC, CD3/CD28 antibody stimulated, 1 uM NECA, 24 hours, IL-2 in culture supernatant
Field: label. Allowed values: condition met (IC50 < 20 nM) or condition not met (IC50 >= 20 nM).

Qu. Dear colleague, could you confirm whether IC50 of Cc1cc(-c2c(-c3cccc(C#N)c3)nn3ccc(N[C@@H](C)C(C)(C)O)nc23)cc(Cl)n1 falls below 20 nM? Thanks.
Ans. condition not met

Qu. Does the reported IC50 of the following compound sit strictly below 20 nM? COc1cc(-c2c(-c3cccc(C#N)c3)nn3ccc(C(=O)NCC(C)(C)O)nc23)cc(C)n1
Ans. condition met

Qu. Take the compound CC(C)(C)OC(=O)N1CCO[C@@H](CNc2ccn3nc(-c4ccco4)c(C#N)c3n2)C1 and say whether its IC50 is less than 20 nM.
Ans. condition not met

Qu. Determine whether this compound shows IC50 lower than 20 nM (ties excluded): Cc1cc(-c2c(-c3cccc(C#N)c3)nn3ccc(C(=O)N[C@H](C)C(C)(C)O)nc23)cc(Cl)n1
Ans. condition met

Qu. Just wondering, is IC50 of Cc1cc(-c2c(-c3cccc(C#N)c3)nn3ccc(C(=O)NCC(C)(O)CO)nc23)cc(Cl)n1 (stereo not shown) below 20 nM?
Ans. condition met

Qu. Find out if reported IC50 for N#Cc1c(-c2ccco2)nn2ccc(NCc3ccccc3)nc12 is less than 20 nM
Ans. condition not met

Qu. # strict comparison: is reported IC50 < 20 nM? input = Brc1c(-c2ccco2)nn2ccc(NCc3ccccc3)nc12
Ans. condition not met

Qu. Record Cc1cc(-c2c(-c3cccc(C#N)c3)nn3ccc(NCC(C)(C)O)nc23)cc(Cl)n1 : is its IC50 strictly below 20 nM?
Ans. condition not met

Qu. is_below(IC50, 20 nM) for Cc1cc(-c2c(-c3cccc(C#N)c3)nn3ccc(N[C@H]4C[C@H](O)C4)nc23)cc(Cl)n1 ?
Ans. condition not met

Qu. IC50 strictly < 20 nM for this compound? Cc1cc(-c2c(-c3cccc(C#N)c3)nn3ccc(C(N)=O)nc23)cc(Cl)n1
Ans. condition met

Qu. Lab note: confirm whether the reported IC50 for this compound is below 20 nM, equality not counting. compound: Cc1cc(-c2c(-c3cccc(C#N)c3)nn3ccc(C(=O)NC45CC(O)(C4)C5)nc23)cc(Cl)n1
Ans. condition not met

Qu. Report whether reported IC50 is lower than 20 nM (strictly) for N#Cc1c(-c2ccco2)nn2ccc(N3CCN(Cc4c(F)cc(F)cc4F)CC3)nc12
Ans. condition met

Qu. Does the reported IC50 of the following compound sit strictly below 20 nM? Cc1cc(-c2c(-c3cccc(C#N)c3C)nn3ccc(C(=O)N[C@H](C)C(C)(C)O)nc23)cc(C)n1
Ans. condition met

Qu. Decide: IC50 of Cc1cc(-c2c(-c3cccc(C#N)c3)nn3ccc(NC(=O)C(C)(C)O)nc23)cc(C)n1 strictly below 20 nM?
Ans. condition met

Qu. Please indicate whether the reported IC50 of Cc1cc(-c2c(-c3cccc(C#N)c3)nn3ccc(NC4CCNCC4)nc23)cc(Cl)n1 is strictly below 20 nM.
Ans. condition met

Qu. IC50 strictly < 20 nM for this compound? N#Cc1c(-c2cccc(F)c2)nn2ccc(N)nc12
Ans. condition not met

Qu. Below 20 nM on IC50? Entry Cc1cc(-c2c(-c3cccc(C#N)c3)nn3ccc(C(=O)NC(C)(C)C#N)nc23)cc(Cl)n1
Ans. condition met

Qu. Is IC50 of CC(=O)NC(C)(C)CNC(=O)c1ccn2nc(-c3cccc(C#N)c3)c(-c3cc(C)nc(Cl)c3)c2n1 strictly below 20 nM?
Ans. condition met

Qu. Hello, is IC50 of the following compound strictly smaller than 20 nM? NC(=O)c1c(-c2ccco2)nn2ccc(NCc3ccccc3)nc12
Ans. condition not met

Qu. Input Cc1cc(-c2c(-c3cccc(C#N)c3)nn3ccc(NC[C@@H](C)O)nc23)cc(Cl)n1 ; condition: IC50 strictly below 20 nM. Does it hold?
Ans. condition met

Qu. Is 20 nM strictly greater than the compound's reported IC50? compound: Cc1cc(-c2c(-c3cccc(C#N)c3C)nn3ccc(C(=O)NCC(C)(C)O)nc23)cc(Cl)n1
Ans. condition met

Qu. Hello, is IC50 of the following compound strictly smaller than 20 nM? Cc1cccnc1CNc1ccn2nc(-c3ccco3)c(C#N)c2n1
Ans. condition met

Qu. Input Cc1cc(-c2c(-c3cccc(C#N)c3)nn3ccc(N4CC5CCC(C4)O5)nc23)cc(Cl)n1 ; condition: IC50 strictly below 20 nM. Does it hold?
Ans. condition not met

Qu. Identify whether the compound Cc1cc(-c2c(-c3cccc(C#N)c3)nn3ccc(C(=O)NCC4CCNC(=O)C4)nc23)cc(C)n1 (stereo not shown) records IC50 below 20 nM.
Ans. condition not met

Qu. Lab note: IC50 threshold 20 nM. Does this compound come in strictly under it? Cc1cc(-c2c(-c3cccc(C#N)c3)nn3ccc(NC(N)=O)nc23)cc(C)n1
Ans. condition not met

Qu. Record Cc1cc(-c2c(-c3cccc(C#N)c3C)nn3ccc(C(=O)NCC(C)(C)O)nc23)cc(C)n1 : is its IC50 strictly below 20 nM?
Ans. condition not met

Qu. # strict comparison: is reported IC50 < 20 nM? input = O=Cc1c(-c2ccco2)nn2ccc(NCc3ccccc3)nc12
Ans. condition not met

Qu. Hello, I'm reviewing records and need to know if IC50 of Cc1cc(-c2c(-c3cccc(C#N)c3)nn3ccc(C(=O)NCC(C)(C)O)nc23)cc(C#N)n1 is below 20 nM. Could you check?
Ans. condition not met

Qu. Does CCN1CCC(Nc2ccn3nc(-c4cccc(C#N)c4)c(-c4cc(C)nc(Cl)c4)c3n2)CC1 have IC50 strictly under 20 nM?
Ans. condition not met

Qu. Field: below-cutoff. Rule: recorded IC50 strictly less than 20 nM. Subject: Cc1cc(-c2c(-c3cccc(C#N)c3)nn3ccc(N[C@H](C)CO)nc23)cc(Cl)n1
Ans. condition met

Qu. Please state whether IC50 is below 20 nM for Cc1cc(-c2c(-c3cccc(C#N)c3)nn3ccc(NC4CCN(S(C)(=O)=O)CC4)nc23)cc(Cl)n1
Ans. condition met

Qu. Quick check: does Cc1cc(-c2c(-c3cccc(C#N)c3)nn3ccc(C(=O)N[C@@H](C)C(C)(C)O)nc23)cc(C)n1 have IC50 under 20 nM?
Ans. condition met

Qu. Below 20 nM on IC50? Entry Cc1cc(-c2c(-c3cccc(C#N)c3)nn3ccc(C(=O)N[C@H]4C[C@@H](O)C4)nc23)cc(Cl)n1
Ans. condition not met
